Test: Tested for functional activity against neuronal nicotinic acetylcholine receptor(nAChR) expressed in K177 cells using isotopic rubidium efflux assay.
pEC50: −log10 of the molar value.
measurement_kind: pEC50

[[record]]
molecule = "c1cnc2cc([C@@H]3CCCN3)oc2c1"
measured_value = "< 3.00"

